These entries and their values trace back to patent US20220389001A1.

- Test system: ATF6
- Method description: ERSE ATF6-luciferase assay in presence of Tg-induced ER stress (U2-OS ATF6 TRE-luciferase reporter cells)
- Format: cell-based, Human
- Test conditions: Homo sapiens, U2OS, 8 h, 1 μM test compound, Tg only = 100%
Listing of entries alongside the reported activity at 1 µM.

Take a look at these entries with their results.
[[record]]
compound = "CC(c1ccc(F)cc1F)n1cc(NC(=O)c2cc(-c3ccco3)on2)cn1 (single isomer, unassigned) [Compound 1-16]"
quantity_kind = "activity at 1 µM"
recorded_result = "100 to 125%"

[[record]]
compound = "O=C(Nc1cnn(C2CCCc3ccccc32)c1)c1cc(-c2ccco2)on1 (stereo not shown)"
quantity_kind = "activity at 1 µM"
recorded_result = "100 to 125%"

[[record]]
compound = "CC(c1c(F)cccc1Cl)n1cc(NC(=O)c2cc(-c3ccco3)on2)cn1 (stereo not shown)"
quantity_kind = "activity at 1 µM"
recorded_result = "> 150%"


// query Consider the compound O=C(Nc1cnn(C2CCc3cc(C(F)(F)F)ccc32)c1)c1cc(-c2cnccn2)on1 (stereo not shown) and give its measured activity at 1 µM.
// result 75 to 100%

* * *

- Tested on: ATF6
- Method description: ERSE ATF6-luciferase assay in presence of Tg-induced ER stress (U2-OS ATF6 TRE-luciferase reporter cells)
- Format: cell-based, Human
- Test conditions: Homo sapiens, U2OS, 8 h, 1 μM test compound, Tg only = 100%
Listing of entries alongside the reported activity at 1 µM.

[[record]]
molecule = "Cc1c(NC(=O)c2cc(-c3ccco3)on2)cnn1C(C)c1c(Cl)cccc1Cl (centres unmarked)"
quantity_kind = "activity at 1 µM"
recorded_result = "75 to 100%"

[[record]]
molecule = "CC(c1ccc(F)cc1F)n1cc(NC(=O)c2cc(-c3ccco3)on2)cn1 (centres unmarked) [Compound 1-5]"
quantity_kind = "activity at 1 µM"
recorded_result = "100 to 125%"

[[record]]
molecule = "CC(c1c(Cl)cccc1Cl)n1cc(NC(=O)c2cc(-c3cccs3)on2)cn1 (centres unmarked)"
quantity_kind = "activity at 1 µM"
recorded_result = "75 to 100%"

[[record]]
molecule = "CC(c1ccc(F)cc1Cl)n1cc(NC(=O)c2cc(-c3ccco3)on2)cn1 (centres unmarked)"
quantity_kind = "activity at 1 µM"
recorded_result = "100 to 125%"


Shifting focus to the molecule that follows.
// query Consider the molecule CC(c1ccc(C(F)(F)F)cc1C(F)(F)F)n1cc(NC(=O)c2cc(-c3cnccn3)no2)cn1 (centres unmarked) and give its measured activity at 1 µM.
// result 50 to 75%
